Measured values drawn from patent US11566007B2 for this set.

- SYSTEM: KRAS G13D (Homo sapiens (Human), UniProt P01116+P62937, G13D)
- Sequence (P01116-2 other isoform, or with tags, fused parts or gaps G13D): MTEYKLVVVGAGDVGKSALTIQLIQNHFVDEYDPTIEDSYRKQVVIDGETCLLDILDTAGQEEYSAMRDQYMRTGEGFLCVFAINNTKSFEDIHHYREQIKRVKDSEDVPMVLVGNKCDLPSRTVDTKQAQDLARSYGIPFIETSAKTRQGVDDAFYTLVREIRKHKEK
- Sequence (P62937 whole entry): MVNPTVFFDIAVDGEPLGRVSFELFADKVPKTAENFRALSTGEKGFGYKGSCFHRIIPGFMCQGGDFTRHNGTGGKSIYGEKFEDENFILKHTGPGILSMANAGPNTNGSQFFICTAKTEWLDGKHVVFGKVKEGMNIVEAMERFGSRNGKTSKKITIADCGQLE
- TEST_DESCRIPTION: Ras-Raf (BRAF RBD) disruption / FRET / MOA assay, KRAS G13D
- Type: biochemical
- CONDITION_SUMMARY: read-out: IC50* KRAS G13D FRET data

COMPOUND: CCn1c(-c2cccnc2[C@H](C)OC)c2c3cc(ccc31)-c1cccc(c1)C[C@H](NC(=O)[C@H](C(C)C)N(C)C(=O)[C@H]1CCN(C(=O)/C=C/CN3CC(OC)C3)C1)C(=O)N1CCC[C@H](N1)C(=O)OCC(C)(C)C2 (atropisomer, axis not shown)
IC50: > 10 µM
--
COMPOUND: C=CC(=O)N1CCC2(C1)OCN([C@H](C(=O)N[C@H]1Cc3cccc(c3)-c3ccc4c(c3)c(c(-c3cccnc3[C@H](C)OC)n4CC)CC(C)(C)COC(=O)[C@@H]3CCCN(N3)C1=O)C(C)C)C2=O (some centres unmarked)
IC50: 1 to 10 µM
